- target.or.test.system: CDK2/Cyclin-A kinase complex (Homo sapiens, UniProt P24941)
- assay.notes: CDK2 IMAP fluorescence polarization assay
- Format: biochemical
- condition.summary: Table E; read-out: CDK2cyA IMAP/IC50 [umol l − 1]
For each of the compounds below, state its IC50.

Example entries and their recorded answers appear below.
# compound, IC50
records = [
    ("Cc1cn(C2CCCC2)c2nc(Nc3ccc(CCN4CCOCC4)cc3)ncc12", "> 10 µM"),
    ("CCC(CC)n1ccc2cnc(Nc3ccc(C4CCN(C(C)=O)CC4)cc3)nc21", "> 10 µM"),
]

Field: IC50. Fill in for each record below.
1. CCOC(=O)C(C(C)C)n1ccc2cnc(Nc3ccc(N4CCN(C(C)=O)CC4)cc3)nc21 (centres unmarked)
2. Cc1cn(C2CCCCC2)c2nc(Nc3ccc(N4CCN(C)CC4)cc3)ncc12
3. CCOC(OCC)c1cc2cnc(Nc3ccc(N4CCN(C(C)=O)CC4)cc3)nc2n1C(CC)CC
4. Cc1cn(C2CCCC2)c2nc(Nc3ccccc3C#N)ncc12
5. CCC(C)n1ccc2cnc(Nc3ccc(N4CCNCC4)cc3)nc21 (centres unmarked)
6. CCC(CC)n1ccc2cnc(Nc3ccc(N4CCN(C)CC4)cn3)nc21
7. CCC(CC)n1ccc2cnc(Nc3ccc(N4CCNCC4)cc3)nc21
8. COC(=O)c1c(C)n(C2CCCC2)c2nc(Nc3ccc(N4CCNCC4)cc3)ncc12

["> 10 µM", "> 10 µM", "> 10 µM", "> 10 µM", "< 10 µM", "> 10 µM", "< 10 µM", "> 10 µM"]

Field: IC50. Fill in for each record below.
1. Cc1cn(C2CCCC2)c2nc(Nc3ccncn3)ncc12
2. CCC(CC)n1c(C(=O)NC2CCCC2)cc2cnc(Nc3ccc(N4CCNCC4)cc3)nc21
3. Cc1cn(C2CCCC2)c2nc(Nc3ccc(N4CCNCC4)c(F)c3)ncc12
4. Cc1cn(C2CCCC2)c2nc(Nc3ccccc3)ncc12
5. CCN(CC)c1ccc(Nc2ncc3ccn(C4CCCC4)c3n2)cc1
6. CC(=O)N1CCN(c2ccc(Nc3ncc4ccn(C5CCC(C)CC5)c4n3)cc2)CC1 (centres unmarked)
7. CC1CCC(n2ccc3cnc(Nc4ccc(N5CCNCC5)cc4)nc32)CC1 (centres unmarked)

> 10 µM
> 10 µM
< 10 µM
> 10 µM
< 10 µM
< 1 µM
< 10 µM

Field: IC50. Fill in for each record below.
1. Cc1cn(-c2nccs2)c2nc(Nc3ccc(N4CCNCC4)cn3)ncc12
2. Cc1cn(C2CCCC2)c2nc(Nc3ccc(N(C)C)cc3)ncc12
3. CCC(CC)n1cc(C)c2cnc(Nc3ccc(N4CCN(C)CC4)cc3)nc21
4. CCC(CC)n1c(C(=O)Nc2ccncc2)cc2cnc(Nc3ccc(N4CCNCC4)cc3)nc21
5. Cc1c(C#N)n(C2CCCC2)c2nc(Nc3ccc(N4CCC(N(C)C)CC4)cc3)ncc12
6. CC(=O)N1CCN(c2ccc(Nc3ncc4ccn(C5CCOCC5)c4n3)cc2)CC1

> 10 µM
> 10 µM
> 10 µM
> 15 µM
< 1 µM
< 10 µM

---

- target.or.test.system: JAK-3 (Homo sapiens, UniProt P52333)
- Construct: GST fusion constructs of the kinase domains of both enzymes are used; GST
- Sequence (P52333 822-1111 limits assumed): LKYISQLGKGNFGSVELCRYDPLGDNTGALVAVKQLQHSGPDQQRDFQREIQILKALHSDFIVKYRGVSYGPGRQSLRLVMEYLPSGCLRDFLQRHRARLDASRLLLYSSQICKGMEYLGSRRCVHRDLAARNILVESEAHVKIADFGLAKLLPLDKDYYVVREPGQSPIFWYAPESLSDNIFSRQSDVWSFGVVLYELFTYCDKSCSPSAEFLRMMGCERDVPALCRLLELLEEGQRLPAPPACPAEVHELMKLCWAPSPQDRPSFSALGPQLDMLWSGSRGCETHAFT
- assay.notes: JAK LANCE enzymatic assay (JAK-3)
- Type: biochemical
- condition.summary: Table A; read-out: Jak-3/ IC50
For each of the molecules below, state its IC50.

Example entries and their recorded answers appear below.
# molecule, test.readout, result
data = [
    ("CN1CCN(C(=O)c2cccc(Nc3ncc4c(n3)N(C3CCCCC3)C(=O)C4)c2)CC1", "IC50", "≥ 100 nM"),
    ("CCC(CC)N1C(=O)C(C)(C)c2cnc(Nc3ccc(N4CCN(C(C)=O)CC4)cc3)nc21", "IC50", "≥ 100 nM"),
    ("CCC(CC)N1C(=O)Cc2cnc(Nc3ccc(N4CCN(C)CC4)c(F)c3)nc21", "IC50", "≤ 100 nM"),
    ("COc1ccc(C(=O)N2CCN(C)CC2)cc1Nc1ncc2c(n1)NC(=O)C2 [drawing 20]", "IC50", "≥ 100 nM"),
    ("CC(=O)N1CCN(c2ccc(Nc3ncc(Br)c(Nc4ccccn4)n3)cc2)CC1", "IC50", "≤ 100 nM"),
]

Field: IC50. Fill in for each record below.
1. CCC(CC)N1C(=O)Cc2cnc(Nc3ccc(N4CCN(C(C)=O)CC4)cc3)nc21
2. CCC(CC)N1C(=O)Cc2cnc(Nc3cccc(OCCN(CC)CC)c3)nc21
3. CCC(CC)N1C(=O)Cc2cnc(Nc3ccc(S(=O)(=O)Nc4ccccn4)cc3)nc21
4. CCC(CC)N1C(=O)Cc2cnc(Nc3cccc(OCCN4CCOCC4)c3)nc21
5. CCC(CC)N1C(=O)Cc2cnc(Nc3cccc(NCCN4CCCC4)c3)nc21

≤ 100 nM
≥ 100 nM
≥ 100 nM
≥ 100 nM
≤ 100 nM

FYI, the data here is from patent US20120207763A1.
